Target: T1, human CD3e/g antigen (ACRO, catalog number CDG-H52W5) (human, UniProt P07766 23-126; P09693 23-116)
T1 construct: Bought reagent used as the Biacore analyte; also called hCD3e/g
Experiment: SPR (Biacore 8K), antibody captured via anti-human Fc
Method: The equilibrium dissociation constant of binding of CD3 antibodies to human CD3e/g antigen (purchased from ACRO, catalog number CDG-H52W5) was determined by kinetic binding method using Biacore 8K (GE) system. […]
For each record, write down the corresponding kon.
Write down the value, and be sure its unit follows.

Guide cases for kon, answers given:
>>> test_value("hAb007-19 (antibody, V domains shown, Humanized; constant regions not specified) VH: QVQLVQSGAEVKKPGASVKVSCKASGSTFTDNYIHWVRQAPGQRLEWMGWIYPGSVNIKYNEKFKDRVTITRDTSASTAYMELSSLRSEDTAVYYCARDISRYYFDYWGQGTTVTVSS VL: DIVMTQSPDSLAVSLGERATMNCKSSQSLLNSRTRKNYLAWYQQKPGQPPKLLIYWASTRESGVPDRFSGSGSGTDFTLTISSLQAEDVAVYYCKQSFILRTFGGGTKLEIK")
"340000 M⁻¹ s⁻¹"
>>> test_value("hAb007-32 (antibody, V domains shown, Humanized; constant regions not specified) VH: QVQLVQSGAEVKKPGASVKVSCKASGSTFTDNYIHWVKQAPGQRLEWIGWIYPGSVNIKYNEKFKDRATITADTSATTAYMELSSLRSEDTAVYYCARDISRYYFDYWGQGTTVTVSS VL: DIVMTQSPDSLAVSLGERATMNCKSSQSLLNSRTRKNYLAWYQQKPGQPPKLLIYWASTRESGVPDRFTGSGSGTDFTLTISSLQAEDVAVYYCKQSFILRTFGGGTKLEIK")
"419000 M⁻¹ s⁻¹"

### Prompt Given the entry hAb001-27 (antibody, V domains shown, Humanized; constant regions not specified) VH: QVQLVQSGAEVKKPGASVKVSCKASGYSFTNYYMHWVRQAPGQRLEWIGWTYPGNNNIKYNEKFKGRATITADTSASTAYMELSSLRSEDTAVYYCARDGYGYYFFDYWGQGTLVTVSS VL: DIVMTQSPDSLAVSLGERATMSCKSSQSLLNNRTRKNYLAWYQQKPGQPPKLLIYWASTRESGVPDRFSGSGSGTDFTLTISSLQAEDVAVYYCKQSYTLRTFGGGTKLEIK , report its measured kon.
### Response 391000 M⁻¹ s⁻¹

Where do the numbers come from? From patent US20250346668A1.
